The values you see were collected from ChEMBL document CHEMBL5625242.

Recorded concentration at 5 min for the following molecules
# Experiment summary: Drug concentration in Swiss mouse plasma at 2.5 mg/kg, iv measured at 5 mins post-dose
# Format: ADME, organism-based
Quantity name: concentration at 5 min (ng/mL)

| Compound | Quantity name | Value measured |
| --- | --- | --- |
| N#Cc1ccc([C@@H]2[C@@H]3CC[C@@H](C[C@@H]3O)N2S(=O)(=O)c2ccc(Cl)cc2)cn1 | concentration at 5 min | 731 |
| O=S(=O)(c1ccc(Cl)cc1)N1[C@H]2CC[C@@H]([C@H]1c1ccc(C(F)(F)F)cc1)[C@@H](O)C2 | concentration at 5 min | 680 |

---

# Experiment summary: Half life in CD-1 mouse at 30 mg/kg, po measured at 4 hrs post-dose
# Assay type: ADME, organism-based
# Experimental setup: in vivo

| Compound | half-life [min] |
| --- | --- |
| O=S(=O)(c1ccc(Cl)cc1)N1[C@H]2CC[C@@H]([C@H]1c1ccc(C(F)(F)F)cc1)[C@@H](O)C2 | 28.9 |

---

Recorded IC50 for the following compounds
# Test system: calcium channel
# Experiment summary: Inhibition of rat calcium channel
# Type: toxicity

| Compound | System | IC50 |
| --- | --- | --- |
| O=S(=O)(c1ccc(Cl)cc1)N1[C@H]2CC[C@@H]([C@H]1c1ccc(C(F)(F)F)cc1)[C@@H](O)C2 | calcium channel | > 10 µM |
| N#Cc1ccc([C@@H]2[C@@H]3CC[C@@H](C[C@@H]3O)N2S(=O)(=O)c2ccc(Cl)cc2)cn1 | calcium channel | > 10 µM |

---

# Experiment summary: Metabolic stability in mouse liver microsomes assessed as intrinsic clearance
# Format: ADME, Microsome
# Experimental setup: liver microsomes, read-out: CLH
Recorded microsomal CLint for the following compounds
Quantity name: microsomal CLint (µL/min/mg)

| Compound | Quantity name | Relational operator | Value measured |
| --- | --- | --- | --- |
| N#Cc1ccc([C@@H]2[C@@H]3CC[C@@H](C[C@@H]3O)N2S(=O)(=O)c2ccc(Cl)cc2)cn1 (racemic) | microsomal CLint | = | 118 |
| O=S(=O)(c1ccc(Cl)cc1)N1[C@H]2CC[C@@H]([C@H]1c1ccc(C(F)(F)F)cc1)[C@@H](O)C2 (racemic) | microsomal CLint | > | 347 |

---

# Experiment summary: MRT in CD-1 mouse at 30 mg/kg, po measured at 4 hrs post-dose
# Format: ADME, organism-based
# Experimental setup: in vivo
Quantity name: MRT (min)

| Compound | Quantity name | Value measured |
| --- | --- | --- |
| O=S(=O)(c1ccc(Cl)cc1)N1[C@H]2CC[C@@H]([C@H]1c1ccc(C(F)(F)F)cc1)[C@@H](O)C2 | MRT | 27.2 |

---

# System: Cytochrome P450 2D6 (Homo sapiens)
# Sequence (P10635 whole entry): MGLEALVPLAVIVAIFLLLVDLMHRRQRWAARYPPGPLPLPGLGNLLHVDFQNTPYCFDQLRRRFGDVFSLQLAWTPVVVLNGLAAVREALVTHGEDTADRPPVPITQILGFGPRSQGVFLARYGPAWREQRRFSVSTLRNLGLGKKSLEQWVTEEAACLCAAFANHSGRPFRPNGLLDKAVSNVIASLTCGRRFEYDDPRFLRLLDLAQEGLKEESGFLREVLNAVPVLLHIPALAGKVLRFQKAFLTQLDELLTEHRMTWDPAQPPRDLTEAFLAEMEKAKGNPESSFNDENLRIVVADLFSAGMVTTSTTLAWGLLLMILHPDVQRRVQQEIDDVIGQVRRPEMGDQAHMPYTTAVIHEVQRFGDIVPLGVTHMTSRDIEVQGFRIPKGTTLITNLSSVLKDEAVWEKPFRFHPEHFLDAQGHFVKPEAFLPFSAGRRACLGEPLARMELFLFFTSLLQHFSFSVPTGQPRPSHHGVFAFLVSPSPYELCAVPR
Recorded IC50 for the following compounds

| Compound | System | IC50 |
| --- | --- | --- |
| N#Cc1ccc([C@@H]2[C@@H]3CC[C@@H](C[C@@H]3O)N2S(=O)(=O)c2ccc(Cl)cc2)cn1 | Cytochrome P450 2D6 (Homo sapiens) | > 10 µM |
| O=S(=O)(c1ccc(Cl)cc1)N1[C@H]2CC[C@@H]([C@H]1c1ccc(C(F)(F)F)cc1)[C@@H](O)C2 | Cytochrome P450 2D6 (Homo sapiens) | > 10 µM |
